- Condition Details: buffer; pH 7.4; 200.0 µM
Measured Parameter: solubility kinetic (µg/mL)
A number alone suffices; assume µg/mL.

Smiles Input	solubility kinetic, µg/mL
CCCCN(CC)C(=O)c1ccc(Cl)cc1	29.5
COCCCn1c(=NC(C)=O)c(C#N)cc2c(=O)n3cccc(C)c3nc21	52.3
CCOc1ccc(CC(=O)Nc2cc(=O)n(C)c(=O)n2C)cc1	4.8
COc1ccc(-c2noc(=O)n2Cc2ccccc2Cl)cc1	17.8

Entry COC(=O)c1ccccc1NCC(=O)c1ccc(OC)cc1 — recorded solubility kinetic = 11.2

Entry CCOC(=O)c1cc(S(=O)(=O)N2CCC(C)CC2)cn1C — recorded solubility kinetic = 5.2

###

- Condition Details: buffer; pH 7.4; 200.0 µM
log10(solubility kinetic) reference
Field: value | Transform: log10 | Quantity: solubility kinetic | Unit: µg/mL

Use these answered entries as a reference point.
Compound	Quantitative Readout
COC(=O)C1C(O)=C(C(C)=Nc2cccc3ccccc23)C(=O)CC1(C)C (configuration not stated)	1.31
COCC(=O)Nc1ccc(Br)cc1C	1.55
COC(=O)c1ccc(N2C(=O)C3CC=CC(C)C3C2=O)cc1 (configuration not stated)	1.30

Entry Cc1cccc(N(Cc2cc(=O)[nH]c3ccccc23)C(=O)C(C)C)c1 — recorded log10(solubility kinetic) = 1.56

Entry O=C(OCc1ccccc1F)c1cnc(Cl)c(Cl)c1 — recorded log10(solubility kinetic) = 0.20

Entry O=S(=O)(NCC(O)c1ccccc1)c1cc(Cl)sc1Cl (configuration not stated) — recorded log10(solubility kinetic) = 1.70

###

log10 of solubility kinetic reference
- Condition Details: buffer; pH 7.4; 200.0 µM
Field: value | Transform: log10 | Quantity: solubility kinetic | Unit: µg/mL

Use these answered entries as a reference point.
Molecule	log10 of solubility kinetic
Cc1cc(C(=O)COC(=O)/C=C/c2ccc(F)cc2)c(C)n1C	0.79
Cc1cc(NC(=O)Cn2c(=O)oc3ccccc32)no1	0.93
Brc1ccc(-c2cnco2)cc1	0.34
CCNC(=S)Nc1cc2oc3ccccc3c2cc1OC	0.51
CC(CC(=O)NCc1ccc(Cl)cc1)c1ccccc1 (stereo not given)	1.59
Cc1ccc(NC(=O)CCOc2ccccc2)cc1	1.07

Entry CCOC(=O)N1CCN(C(=O)c2cc3ccc(OC)cc3[nH]2)CC1 — recorded log10 of solubility kinetic = 1.29

Entry C[C@H](NS(=O)(=O)c1ccc(Cl)cc1)C(=O)OCC(=O)N1CCOCC1 — recorded log10 of solubility kinetic = 1.75

Entry Cc1ccccc1N1CC(C(=O)N2CC(C)OC(C)C2)CC1=O (stereo not given) — recorded log10 of solubility kinetic = 1.67

Entry O=C(/C=C/c1c(F)cccc1Cl)N1CCc2ccccc2C1 — recorded log10 of solubility kinetic = 0.77

###

- Condition Details: buffer; pH 7.4; 200.0 µM
Measured Parameter: solubility kinetic

Use these answered entries as a reference point.
Molecule	solubility kinetic
CC(Oc1ccc(Br)cc1Cl)C(=O)Nc1ccncc1 (stereo unspecified)	45.9 µg/mL
CCOc1ccc(-c2cnc(N)n2C)cc1	31.8 µg/mL
COc1ccc(/C=C/C(=O)O)cc1S(=O)(=O)NCc1cccnc1	> 52.3 µg/mL
O=C(N=C1SC2CS(=O)(=O)CC2N1c1ccccc1)c1ccccc1 (stereo unspecified)	4 µg/mL
CC(C)Cn1c(N)c(C(=O)COC(=O)c2cc(S(=O)(=O)N3CCOCC3)ccc2Br)c(=O)n(C)c1=O	7.9 µg/mL

Attention now turns to another entry.
Entry O=C(CN1C(=O)C(=O)N(C2CCCC2)C1=O)NCCc1ccc(F)cc1 — recorded solubility kinetic = > 54.2 µg/mL
